Hey, just so you know, these numbers are from the supplement of paper PMC9732359.

Assay: protein stability index of a GFP-peptide fusion (yeast GPS) (PSI 1-4); higher = more stable; sorted into four equal gates, so the index is relative within each strain
Settings: doa10∆
Measured protein stability index, listed per entry.
A bare number is all that is needed in reply.

See these solved cases before continuing.
| Biosequence | protein stability index |
| --- | --- |
| VVDQLWSEISNELPDIE [RPN2] | 2.38 |
| EQDILDLIAEQVVTDYN [SSN2] | 3 |
| SIDNDFSEEKAEEFDFN [YAR002W/NUP60] | 3.19 |
| MSAPQAKILSQAPTELE [RPS7A] | 2.79 |
| QLKFEGFALNSDIVFIH [BRR2] | 1.87 |

Recorded protein stability index of CRELHNKHLTTLVEIFL [SSN3] , please.
1.59

Recorded protein stability index of TLSKTTDSSALTYDRLE [PRE9] , please.
3.16

Recorded protein stability index of TSIARIGDYILKSPVLS [QCR7] , please.
1.5

Recorded protein stability index of EEIRSQIDHFKSMLSKP [SWI3] , please.
1.65

Recorded protein stability index of SILSFVDKELLEPGCSV [RPT2] , please.
2.75

Recorded protein stability index of TEEKCKNFIESESVGAF [YJL039C/NUP192] , please.
3.43

----------
Experiment: protein stability index of a GFP-peptide fusion (yeast GPS) (PSI 1-4); higher = more stable; sorted into four equal gates, so the index is relative within each strain
Details: pdr5∆
Measured protein stability index, listed per entry.
A bare number is all that is needed in reply.

See these solved cases before continuing.
| Biosequence | protein stability index |
| --- | --- |
| LAAMAVLESHWKQDLTK [PUP1] | 3.24 |
| ELDQEYRSCETQDESEI [SMC4] | 3.24 |
| SHFSLDQFITSLKCTDP [ITC1] | 2.42 |
| LELAGMDALYEKIWFAI [SIR3] | 1.53 |

Recorded protein stability index of IIKGTDVYSPEKGSWEQ [BRR2] , please.
3.35

Recorded protein stability index of LLINTNFNKFFKIWHGE [PCI8] , please.
1.38

Recorded protein stability index of DVSVKMGNTKVHCRISC [RRP45] , please.
2.28

----------
Measured protein stability index, listed per entry.
Assay: protein stability index of a GFP-peptide fusion (yeast GPS) (PSI 1-4); higher = more stable; sorted into four equal gates, so the index is relative within each strain
Conditions: doa10∆
A bare number is all that is needed in reply.

See these solved cases before continuing.
| Biosequence | protein stability index |
| --- | --- |
| KNLERLRGEYNDLQSET [SMC4] | 3.33 |
| PSRQFDHYESNQLVAKL [SRB8] | 3.02 |
| TPNVREEKQKSYKFPRG [PUP1] | 3.29 |
| TKRWYKNAGLGFKTPKT [RPS11A] | 3.32 |
| SNDKFVHVQLLINLKIS [SRB8] | 1.51 |
| SKCLNLISDSNINNSSV [SWI3] | 1.94 |

Query sequence follows.
Recorded protein stability index of VSSLPGSTDKSLDFLNQ [COR1] , please.
3.45

----------
Test: protein stability index of a GFP-peptide fusion (yeast GPS) (PSI 1-4); higher = more stable; sorted into four equal gates, so the index is relative within each strain
Conditions: pdr5∆
Property label: protein stability index
A bare number is all that is needed in reply.

See these solved cases before continuing.
| Biosequence | protein stability index |
| --- | --- |
| GASINSMKANTSTNPNG [ARP7] | 3.19 |
| VENDTFIERNFTPQEIE [FAS2] | 2.32 |
| NSTASSSNISPEQVYSL [ARP7] | 2.78 |
| RKEWFDIKAPSTFENRN [RPS1A] | 2.46 |
| TSKPVFSFGAATPSAKE [YLR335W/NUP2] | 3.08 |
| MAISKNLPILKNHFRKH [RPL13A] | 2.89 |

Recorded protein stability index of NDRNPRLNENKKIGCYM [CSN12] , please.
3.22

Recorded protein stability index of NAEVVAGNIKCRNDAVN [BRR2] , please.
3.67

Recorded protein stability index of IGFTIKEYENHSGELMR [SMC1] , please.
2.79

Recorded protein stability index of SGKSNILDAICFVLGIA [SMC2] , please.
1.86

Recorded protein stability index of DTGTLDTKSVVGLVMFS [RPN2] , please.
2.66

Recorded protein stability index of FRPIEIFTDFLPSSNGS [RRP42] , please.
3.07

Recorded protein stability index of SEVGDAFIFGLQDELKE [SMC3] , please.
3.31

Recorded protein stability index of LEVFHHFFKWIEFIVYH [SRB8] , please.
1.11

Recorded protein stability index of LTDHRKETWLHELSSSH [SRB8] , please.
3.58
